# PROCEDURE_DETAILS: recombinant UMI read abundance after kanamycin selection (control-corrected) (log10(CPM+1)); higher = more efficient recombination; extreme values may be limits of the assay; sequences stand for … in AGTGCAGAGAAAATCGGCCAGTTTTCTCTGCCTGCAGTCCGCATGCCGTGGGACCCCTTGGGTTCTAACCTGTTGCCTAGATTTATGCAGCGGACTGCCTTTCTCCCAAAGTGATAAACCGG…AGGTTGGTTTCACT; site = the 11-nt donor;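 note: IS621 bridge recombinase in Escherichia coli cells against a fixed T5 target plasmid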
Listing of entries alongside the reported recombinant UMI read abundance (log10).
OBSERVATION_TYPE: recombinant UMI read abundance (log10)

>  <SEQUENCE_INPUT>
GATTAGACATGGACCGGTTTTCCCGGTAATCCGTATTTGAC (site GATTCGACTGT)

>  <VALUE_OBSERVED>
0

$$$$
>  <SEQUENCE_INPUT>
TAATTGACATGGACCGGTTTTCCCGGTAATCCGTATTTGCT (site TACTTGACTAG)

>  <VALUE_OBSERVED>
1.17

$$$$
>  <SEQUENCE_INPUT>
GAAACGTCATGGACCGGTTTTCCCGGTAATCCGTATTTGGC (site GAAACGTCTGC)

>  <VALUE_OBSERVED>
2.01

$$$$
>  <SEQUENCE_INPUT>
GAGGTCACATGGACCGGTTTTCCCGGTAATCCGTATTTGAT (site GAGCTCACTAT)

>  <VALUE_OBSERVED>
0.00889

$$$$
>  <SEQUENCE_INPUT>
CCTAAACCATGGACCGGTTTTCCCGGTAATCCGTATTTGAT (site CCTAAAGCTAT)

>  <VALUE_OBSERVED>
0

$$$$
>  <SEQUENCE_INPUT>
TAATTGACATGGACCGGTTTTCCCGGTAATCCGTATTTGCT (site TATTTGACTAG)

>  <VALUE_OBSERVED>
0.698

$$$$
>  <SEQUENCE_INPUT>
CCATCATCATGGACCGGTTTTCCCGGTAATCCGTATTTGCT (site CTATCATCTAG)

>  <VALUE_OBSERVED>
0.0047

$$$$
>  <SEQUENCE_INPUT>
CACTTGGCATGGACCGGTTTTCCCGGTAATCCGTATTTGGA (site CACTGGGCTTC)

>  <VALUE_OBSERVED>
0.0362

$$$$
>  <SEQUENCE_INPUT>
GTTGTTCCATGGACCGGTTTTCCCGGTAATCCGTATTTGGG (site GTTGTTCCTAC)

>  <VALUE_OBSERVED>
0.0139

$$$$
>  <SEQUENCE_INPUT>
GCCACGTCATGGACCGGTTTTCCCGGTAATCCGTATTTGTA (site GCCACGACTTA)

>  <VALUE_OBSERVED>
0.0796

$$$$
>  <SEQUENCE_INPUT>
CCGTTGACATGGACCGGTTTTCCCGGTAATCCGTATTTGCT (site CCGTTAACTAG)

>  <VALUE_OBSERVED>
0

$$$$
>  <SEQUENCE_INPUT>
ACATCTACATGGACCGGTTTTCCCGGTAATCCGTATTTGAG (site ACATCTACTCC)

>  <VALUE_OBSERVED>
0.184

$$$$
>  <SEQUENCE_INPUT>
TGGACTCCATGGACCGGTTTTCCCGGTAATCCGTATTTGTT (site TGGACTCCTAA)

>  <VALUE_OBSERVED>
0.214

$$$$
>  <SEQUENCE_INPUT>
CCAGCCCCATGGACCGGTTTTCCCGGTAATCCGTATTTGCC (site CCAGCCCCTGG)

>  <VALUE_OBSERVED>
0.451

$$$$
>  <SEQUENCE_INPUT>
TTGCTTACATGGACCGGTTTTCCCGGTAATCCGTATTTGAC (site TTGCTTACTGT)

>  <VALUE_OBSERVED>
0

$$$$
>  <SEQUENCE_INPUT>
CCGTTAGCATGGACCGGTTTTCCCGGTAATCCGTATTTGTG (site CCGTTAGCTCT)

>  <VALUE_OBSERVED>
0

$$$$
>  <SEQUENCE_INPUT>
CGATCATCATGGACCGGTTTTCCCGGTAATCCGTATTTGAC (site CGATCATCTAG)

>  <VALUE_OBSERVED>
0

$$$$
>  <SEQUENCE_INPUT>
CGGAGTCCATGGACCGGTTTTCCCGGTAATCCGTATTTGAT (site CGGAGTCCTAT)

>  <VALUE_OBSERVED>
1.98

$$$$
>  <SEQUENCE_INPUT>
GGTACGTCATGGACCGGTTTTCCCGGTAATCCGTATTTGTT (site AGTACGTCTAA)

>  <VALUE_OBSERVED>
0.0112

$$$$

Sourced from the supplement of paper PMC11208160
